Values from paper PMC10709440

Field: activation at 10 µM. Provide a value for each of the compounds that follow.
measuredTarget: Drosophila OR10a (Drosophila melanogaster)
Construct: expressed in transfected cells
Sequence (Q9VYZ1 whole entry): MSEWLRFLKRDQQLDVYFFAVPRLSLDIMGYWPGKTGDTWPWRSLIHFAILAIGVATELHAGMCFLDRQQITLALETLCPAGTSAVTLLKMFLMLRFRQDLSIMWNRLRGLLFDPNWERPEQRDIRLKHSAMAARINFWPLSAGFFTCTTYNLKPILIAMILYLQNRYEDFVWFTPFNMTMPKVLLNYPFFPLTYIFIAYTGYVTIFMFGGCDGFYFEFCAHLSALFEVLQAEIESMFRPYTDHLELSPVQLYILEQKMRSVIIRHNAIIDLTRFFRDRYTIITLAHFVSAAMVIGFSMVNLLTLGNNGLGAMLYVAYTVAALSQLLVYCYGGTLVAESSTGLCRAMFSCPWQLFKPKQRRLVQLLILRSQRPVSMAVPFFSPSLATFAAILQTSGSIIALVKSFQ
Sequence (Q9VNB5 whole entry partner): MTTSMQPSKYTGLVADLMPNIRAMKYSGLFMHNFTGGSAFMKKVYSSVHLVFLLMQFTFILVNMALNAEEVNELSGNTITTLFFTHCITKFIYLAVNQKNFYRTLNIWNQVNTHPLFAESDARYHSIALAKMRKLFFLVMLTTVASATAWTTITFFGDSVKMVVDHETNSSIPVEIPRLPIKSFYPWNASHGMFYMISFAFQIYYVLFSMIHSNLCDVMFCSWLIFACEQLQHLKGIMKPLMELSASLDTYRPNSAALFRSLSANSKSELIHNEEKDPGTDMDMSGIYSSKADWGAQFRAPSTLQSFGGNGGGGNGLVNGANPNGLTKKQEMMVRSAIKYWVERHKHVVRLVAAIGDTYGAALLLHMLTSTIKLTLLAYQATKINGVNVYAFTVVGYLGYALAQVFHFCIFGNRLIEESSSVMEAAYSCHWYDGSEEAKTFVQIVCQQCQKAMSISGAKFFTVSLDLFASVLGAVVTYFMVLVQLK
procedureDetails: Calcium ion fluorescence (GCaMP6) assay, OR10a stable HEK293 cell line
Type: cell-based
assaySetup: HEK293, 10 μM VOC; 50 μM VUAA1 = 1; responses not exceeding 0.05 considered 0; read-out: OR10a Average response (VUAA1-normalized)
One number for each entry, in %.

As a guide, the following entries are already answered.
[
  {
    "compound": "CCCCC(C)O (stereo not shown)",
    "measurementKind": "activation at 10 µM",
    "observedValue": 0
  },
  {
    "compound": "CCCCCCCCCC=O",
    "measurementKind": "activation at 10 µM",
    "observedValue": 0
  },
  {
    "compound": "CCCCCC(=O)OCC [ethyl hexanoate]",
    "measurementKind": "activation at 10 µM",
    "observedValue": 3
  },
  {
    "compound": "CC/C=C\\CCOC(C)=O [z3-hexenyl acetate]",
    "measurementKind": "activation at 10 µM",
    "observedValue": 0
  }
]

Kindly give each listed record's activation at 10 µM.
1. COC(=O)c1ccccc1 [methyl benzoate]
2. CCCOC(C)=O [propyl acetate]
3. CCCCCC(=O)CC
4. CCCCCOC(C)=O [pentyl acetate]
5. Cc1ccc(C)c(C)c1
6. CCCCCCCCCCCCCC
7. CCCCCCCO

**A:**
1. 64
2. 9
3. 10
4. 8
5. 0
6. 4.22
7. 6.57
